- assay.explanation: NCI Yeast Anticancer Drug Screen. Data for the bub3 strain (AID 167)
- details: S. cerevisiae bub3 mutant strain, at 5.0 µM (retest, dose inferred, filed as 0.5)
This is part of a sample that, as a whole, favours compounds with a hit. Of some 79,000 tested, about 15% had one in any assay. The source made the active and inactive calls. Rule as the data show it: active = growth inhibition above about 70%; inactive = the rest.
Respond with a class label; see T (active), F (inactive)

Cc1ccnc(-c2cc(C)ccn2)c1: F
c1cnc2ccc3c4cccnc4ccc3c2c1: F
N#Cc1c(-c2ccc(Cl)cc2)c(C#N)c(=O)n(NS(=O)(=O)c2ccccc2)c1S: F

In: Name the outcome recorded for CCCOC(=O)C1CCCCC1C(=O)OCCC (stereo unspecified) in the assay.
Out: F

In: Name the outcome recorded for CCCCCCCCc1cc[n+](C2=C([O-])c3ccccc3C(=O)C2=O)cc1 in the assay.
Out: T

In: Name the outcome recorded for CCC(C(c1ccc(Cl)cc1)c1ccc(Cl)c(Cl)c1)[N+](=O)[O-] (stereo unspecified) in the assay.
Out: F

In: Name the outcome recorded for CS(=O)(=O)OCCN(CCOS(C)(=O)=O)c1ccc(C=Nc2ccc(-c3cnc(-c4ccc(Cl)cc4)s3)cc2)c(Cl)c1 in the assay.
Out: F

In: Name the outcome recorded for O=C1c2ccccc2CCC1C(O)(C(F)(F)F)C(F)(F)F (stereo unspecified) in the assay.
Out: F

In: Name the outcome recorded for O=[N+]([O-])c1ccc(CN2CCN(c3nccs3)CC2)cc1 in the assay.
Out: F

In: Name the outcome recorded for N#Cc1c(-c2ccc(Cl)c(Cl)c2)c(-c2ccc(Cl)c(Cl)c2)nn(CC(=O)O)c1=O in the assay.
Out: F

In: Name the outcome recorded for COc1cc(F)ccn1 in the assay.
Out: F

* * *

- assay.explanation: NCI Yeast Anticancer Drug Screen. Data for the mec2-1 strain (AID 157)
- details: S. cerevisiae mec2-1 strain, at 5.0 µM (retest, dose inferred, filed as 0.5)
The panel holds about 79,000 compounds, 15% with a hit somewhere; the sample as a whole holds those more often. Active and inactive are the calls of the source. No stated cut-off is given here; in the data, active means growth inhibition above about 70%; inactive means the rest.
Respond with a class label; see active, inactive

In: Name the outcome recorded for CCCCCCCCCCCCCCCC(=O)NCC[N+](CC)(CC)Cc1ccc(C[N+](CC)(CC)CCNC(=O)CCCCCCCCCCCCCCC)cc1 in the assay.
Out: active

In: Name the outcome recorded for NCCNCCNCc1c2ccccc2c(CNCCNCCN)c2ccccc12 in the assay.
Out: inactive

* * *

- assay.explanation: NCI Yeast Anticancer Drug Screen. Data for the rad50 strain (AID 155);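 also: 0% = growth of vehicle-only cultures of the same strain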
- details: S. cerevisiae rad50 strain growth inhibition; at 5.0 µM (retest, dose inferred, filed as 0.5)
About 79,000 compounds went through this panel and 15% of them were active in at least one assay; those are over-represented in the sample as a whole. Calls of active or inactive are those of the source. Cut-off read from the data, not from the text of the source: active = growth inhibition above about 70%; inactive = the rest.
Respond with a class label; see 1 = active, 0 = inactive

C/C(=N/O)c1ccc2c(c1)C(C)c1ccccc1-2 (stereo not given): 0
Cc1cc(NCCCCCCCCNc2cc(C)nc3cc(N(C)C)ccc23)c2ccc(N(C)C)cc2n1: 0
CC(=O)OCCn1c2nc(=O)[nH]c(=O)c-2nc2cc(C)c(C)cc21: 0

Kindly review the next compound as well.
In: Name the outcome recorded for COc1cccc2c1C(=O)c1c(O)c3c(c(O)c1C2=O)C[C@@](O)(C(=O)CO)C[C@@H]3OC1CC(N)CC(C)O1 (stereo not given in full) in the assay.
Out: 1
